target: Histone deacetylase 2 (Homo sapiens); assay: Inhibition of HDAC2 (unknown origin) at 1 uM incubated for 30 mins by fluorometric analysis
Sequence (Q92769 whole entry): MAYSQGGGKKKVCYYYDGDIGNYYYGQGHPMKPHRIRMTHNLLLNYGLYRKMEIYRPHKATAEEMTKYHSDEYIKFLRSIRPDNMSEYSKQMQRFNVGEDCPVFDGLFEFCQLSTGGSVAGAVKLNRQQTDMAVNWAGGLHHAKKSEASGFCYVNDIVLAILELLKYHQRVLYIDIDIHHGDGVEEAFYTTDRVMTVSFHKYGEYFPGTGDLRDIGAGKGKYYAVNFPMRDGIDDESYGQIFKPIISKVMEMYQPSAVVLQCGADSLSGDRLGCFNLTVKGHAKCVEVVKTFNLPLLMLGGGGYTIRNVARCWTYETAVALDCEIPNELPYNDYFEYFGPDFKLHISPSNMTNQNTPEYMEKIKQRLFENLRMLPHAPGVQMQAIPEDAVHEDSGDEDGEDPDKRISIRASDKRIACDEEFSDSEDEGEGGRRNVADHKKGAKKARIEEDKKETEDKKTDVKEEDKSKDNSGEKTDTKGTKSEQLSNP
ENDPOINT: inhibition (%)

INSERT INTO measurements (record_smiles, test_target, readout_value) VALUES
  ('O=C(NO)c1ccc(CN2C(=O)C3=C(CCN(Cc4ccccc4)C3)N3CCN=C23)cc1', 'Histone deacetylase 2 (Homo sapiens)', 56.8),
  ('O=C(NO)c1ccc(CN2C(=O)C3=C(CCN(Cc4cccc(Cl)c4)C3)N3CCN=C23)cc1', 'Histone deacetylase 2 (Homo sapiens)', 61.8),
  ('O=C(NO)c1ccc(CN2C(=O)C3=C(CCN(Cc4cccnc4)C3)N3CCN=C23)cc1', 'Histone deacetylase 2 (Homo sapiens)', 46.3),
  ('Cc1cccc(CN2CCC3=C(C2)C(=O)N(Cc2ccc(C(=O)NO)cc2)C2=NCCN23)c1', 'Histone deacetylase 2 (Homo sapiens)', 61.7),
  ('O=C(NO)c1ccc(CN2C(=O)C3=C(CCN(Cc4cccc(Br)c4)C3)N3CCN=C23)cc1', 'Histone deacetylase 2 (Homo sapiens)', 63.9),
  ('O=C(NO)c1ccc(CN2C(=O)C3=C(CCN(Cc4cccc(C(F)(F)F)c4Cl)C3)N3CCN=C23)cc1', 'Histone deacetylase 2 (Homo sapiens)', 60.8),
  ('O=C(NO)c1ccc(CN2C(=O)C3=C(CCN(Cc4cccc(F)c4)C3)N3CCN=C23)cc1', 'Histone deacetylase 2 (Homo sapiens)', 61.9),
  ('Cc1ccc(CN2CCC3=C(C2)C(=O)N(Cc2ccc(C(=O)NO)cc2)C2=NCCN23)cc1', 'Histone deacetylase 2 (Homo sapiens)', 58.4),
  ('O=C(NO)c1ccc(CN2C(=O)C3=C(CCN(Cc4ccc(Cl)c(C(F)(F)F)c4)C3)N3CCN=C23)cc1', 'Histone deacetylase 2 (Homo sapiens)', 62.7),
  ('COc1cccc(CN2CCC3=C(C2)C(=O)N(Cc2ccc(C(=O)NO)cc2)C2=NCCN23)c1', 'Histone deacetylase 2 (Homo sapiens)', 57.6),
  ('Cc1ccccc1CN1CCC2=C(C1)C(=O)N(Cc1ccc(C(=O)NO)cc1)C1=NCCN12', 'Histone deacetylase 2 (Homo sapiens)', 60.5);
